target: wild-type hURAT1 (Homo sapiens, UniProt Q96S37)
TEST_READOUT: IC50 (nM)

{"CPD_SMILES": "CC(C)(Sc1ccncc1-c1ccc(C#N)c2ccccc12)C(=O)O", "TESTED_TARGET": "wild-type hURAT1 (Homo sapiens, UniProt Q96S37)", "READOUT_NUMBER": 290}

* * *

Target: URAT1 K393R mutant (Homo sapiens, UniProt Q96S37, K393R)
Sequence (Q96S37 1-553 K393R): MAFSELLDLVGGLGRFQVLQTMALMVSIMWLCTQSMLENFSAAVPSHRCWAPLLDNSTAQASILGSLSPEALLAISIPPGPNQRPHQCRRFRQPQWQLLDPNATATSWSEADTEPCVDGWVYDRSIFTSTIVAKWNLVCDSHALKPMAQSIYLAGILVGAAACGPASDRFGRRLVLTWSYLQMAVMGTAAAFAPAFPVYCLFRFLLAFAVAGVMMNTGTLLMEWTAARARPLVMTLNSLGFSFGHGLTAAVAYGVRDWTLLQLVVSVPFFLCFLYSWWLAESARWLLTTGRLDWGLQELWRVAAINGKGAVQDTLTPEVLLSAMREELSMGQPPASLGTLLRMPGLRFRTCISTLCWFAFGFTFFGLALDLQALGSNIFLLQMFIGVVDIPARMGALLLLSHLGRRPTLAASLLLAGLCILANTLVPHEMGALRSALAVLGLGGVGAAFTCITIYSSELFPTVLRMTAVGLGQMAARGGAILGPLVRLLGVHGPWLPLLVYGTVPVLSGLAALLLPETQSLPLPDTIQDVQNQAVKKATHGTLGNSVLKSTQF
Experiment: Competitive inhibition test of unlabeled uric acid on 14C-uric acid uptake
Assay type: cell-based

{"MOLECULE": "O=c1[nH]c(=O)c2[nH]c(=O)[nH]c2[nH]1 [uric acid]", "IC50 (µM)": 113}

FYI, the data here is from paper PMC9521027.
